molecular target: native membrane-anchored human CD73 (in MDA-MB-231 cell membrane preparations) (Homo sapiens, UniProt P21589); construct: membrane preparations of MDA-MB-231 cells; endogenous in cells; host or cells: MDA-MB-231 cell membrane preparations; test: CD73 enzyme inhibition assay with [2,8-3H]AMP, MDA-MB-231 membrane preparations; type: biochemical; conditions: [2,8-3H]AMP (5 μM) as substrate, read-out: Human CD73 MDA-MB-231 Ki ± SEM
Sequence (P21589 27-549 limits assumed): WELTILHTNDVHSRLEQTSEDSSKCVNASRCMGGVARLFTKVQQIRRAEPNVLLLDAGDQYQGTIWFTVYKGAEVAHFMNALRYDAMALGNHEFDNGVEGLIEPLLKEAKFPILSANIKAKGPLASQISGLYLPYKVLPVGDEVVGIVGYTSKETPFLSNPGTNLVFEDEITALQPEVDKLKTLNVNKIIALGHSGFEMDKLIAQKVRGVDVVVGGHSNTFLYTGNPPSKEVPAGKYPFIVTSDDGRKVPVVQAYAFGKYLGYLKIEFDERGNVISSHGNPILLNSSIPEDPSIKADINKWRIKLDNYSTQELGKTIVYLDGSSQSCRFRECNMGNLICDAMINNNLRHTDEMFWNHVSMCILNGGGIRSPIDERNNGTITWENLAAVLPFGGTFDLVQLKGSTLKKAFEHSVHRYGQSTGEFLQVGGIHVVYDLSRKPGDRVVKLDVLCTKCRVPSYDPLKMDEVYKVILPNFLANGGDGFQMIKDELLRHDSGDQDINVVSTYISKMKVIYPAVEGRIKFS
Description: […]
The following compounds are listed with their measured Ki values.
Give the value, in units of nM, as a plain number.

| compound | units-text | reported-result |
| --- | --- | --- |
| CCCN(Cc1ccc(-c2cn(CCF)nn2)cc1)c1nc(Cl)nc2c1ncn2[C@@H]1O[C@H](COP(=O)(O)CP(=O)(O)O)C(O)C1O (some centres unmarked) [Compound 2] | nM | 2.78 |

In the following, a different compound is considered.
Prompt line: Quick check: Ki of O=C(NCCCCCCNC(=O)c1ccc2c(c1)C1(OC2=O)c2ccc(O)cc2Oc2cc(O)ccc21)c1ccc(CNc2nc(Cl)nc3c2ncn3[C@@H]2O[C@H](COP(=O)(O)CP(=O)(O)O)[C@@H](O)[C@H]2O)cc1 [Compound 20] ?
Response line: 6.76

====

target: human P2Y1 receptor (Homo sapiens); experiment: Calcium mobilization assay at P2Y1 receptor; settings: 2-methylthio-ADP as agonist at EC80 (3 μM); 1231N1 astrocytoma cells; read-out: Inhibition P2Y1 receptor IC50
Sequence (P47900 whole entry): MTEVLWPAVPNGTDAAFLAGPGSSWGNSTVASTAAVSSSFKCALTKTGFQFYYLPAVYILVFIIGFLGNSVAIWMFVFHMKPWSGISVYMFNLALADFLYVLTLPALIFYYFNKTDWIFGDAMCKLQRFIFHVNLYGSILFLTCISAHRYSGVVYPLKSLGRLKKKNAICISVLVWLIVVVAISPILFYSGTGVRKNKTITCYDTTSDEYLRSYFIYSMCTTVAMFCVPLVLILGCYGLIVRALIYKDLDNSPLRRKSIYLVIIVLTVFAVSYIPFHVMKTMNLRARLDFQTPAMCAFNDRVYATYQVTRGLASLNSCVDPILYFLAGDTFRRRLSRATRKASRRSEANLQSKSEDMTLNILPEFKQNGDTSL
pIC50: −log10 of the molar value.
assay-endpoint: pIC50

Prompt line: Request body: readout pIC50, system human P2Y1 receptor (Homo sapiens), query CCCN(Cc1ccc(-c2cn(CCF)nn2)cc1)c1nc(Cl)nc2c1ncn2[C@@H]1O[C@H](COP(=O)(O)CP(=O)(O)O)C(O)C1O (stereo partly shown) . Return the value.
Response line: < 5.00

====

test: Determination of log D7.4 (1-octanol/PBS); type: physicochemical; details: octan-1-ol/PBS buffer; 1-octanol/PBS pH 7.4
assay-endpoint: logD
Give a plain numeric answer without units written out.

Prompt line: Return reported logD; argument: CCCN(Cc1ccc(-c2cn(CC[18F])nn2)cc1)c1nc(Cl)nc2c1ncn2C1O[C@H](COP(=O)(O)CP(=O)(O)O)C(O)C1O (stereo partly shown) [[^18F]2]
Response line: -0.12

====

target: recombinant soluble human CD73 (Homo sapiens, UniProt P21589, T376A); construct: mature human CD73 (residues 27-549) fused to 6×His-tag at the C-terminus; 6xHis (C); assay: CD73 enzyme inhibition assay with [2,8-3H]AMP, soluble human CD73; details: [2,8-3H]AMP (5 μM) as substrate; Ki from IC50 by Cheng-Prusoff; read-out: Human soluble CD73 Ki ± SEM
Sequence (P21589 27-549 T376A): as the sequence (P21589 27-549 limits assumed) above, with T350A counted along it
Ki listing for selected compounds.
Provide the reading as a plain figure in nM.

Field: example entries. Status: answers known.
| compound | test-target | units-text | reported-result |
| --- | --- | --- | --- |
| CCCN(Cc1ccc(-c2cn(CCF)nn2)cc1)c1nc(Cl)nc2c1ncn2[C@@H]1O[C@H](COP(=O)(O)CP(=O)(O)O)C(O)C1O (stereo partly drawn) [Compound 2] | recombinant soluble human CD73 (Homo sapiens, UniProt P21589, T376A) | nM | 1.02 |
| C#Cc1ccc(CN(CCC)c2nc(Cl)nc3c2ncn3[C@@H]2O[C@H](COP(=O)(O)CP(=O)(O)O)C(O)C2O)cc1 (stereo partly drawn) [Compound 1] | recombinant soluble human CD73 (Homo sapiens, UniProt P21589, T376A) | nM | 0.372 |

Moving on to another compound below.
Prompt line: Find the recorded Ki belonging to O=C(NCCCCCCNC(=O)c1ccc2c(c1)C1(OC2=O)c2ccc(O)cc2Oc2cc(O)ccc21)c1ccc(CNc2nc(Cl)nc3c2ncn3[C@@H]2O[C@H](COP(=O)(O)CP(=O)(O)O)[C@@H](O)[C@H]2O)cc1 [Compound 20] and report it.
Response line: 5.96
